Data origin, for the record: the RNAGym collection of RNA variant scans (doi:10.7554/elife.80360)

B1: CPEB3 Ribozyme (parent)
chain: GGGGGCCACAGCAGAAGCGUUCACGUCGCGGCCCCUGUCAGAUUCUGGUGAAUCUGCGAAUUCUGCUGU

variants of: B1; experiment: self-cleavage, relative activity (ratio to wild type); higher = more cleavage; co-transcriptional
Categories are defined by ranges of self-cleavage, namely bin 1 = under 0.4, bin 2 = from 0.4 up to 0.9, bin 3 = 0.9 and over

Where would C32U C45A land among the classes by reported self-cleavage?
bin 3

Where would C45A G56C land among the classes by reported self-cleavage?
bin 2

Where would C12G C45U land among the classes by reported self-cleavage?
bin 2

Where would U38A U44A land among the classes by reported self-cleavage?
bin 2

Where would C45G A51G land among the classes by reported self-cleavage?
bin 3
